experimental_details: The drug is tested on WLS-006 corresponding to human gut metagenome with ENA study accession number: PRJEB37062 and ENA sample accession number: ERS12561741 for biotransformation under anaerobic condition. The drug concentrations were measured over 9 timepoints collected between 0 and 24 hours of incubation by liquid-chromatography-coupled mass spectrometry (LC–MS); further: call rule not given here
condition_notes: 2 µM
measurement_label: Bacterial Biotransformation

Reference set, count: 5
{"compound": "COc1cc2nc(N(C)CCCNC(=O)C3CCCO3)nc(N)c2cc1OC (stereo unspecified)", "measurement_label": "Bacterial Biotransformation", "recorded_measurement": "Compound metabolized"}
{"compound": "Cc1ccc(S(=O)(=O)NC(=O)NN2CC3CCCC3C2)cc1 (stereo unspecified) [GLICLAZIDE]", "measurement_label": "Bacterial Biotransformation", "recorded_measurement": "Compound metabolized"}
{"compound": "Clc1ccc(Cn2c(CN3CCCC3)nc3ccccc32)cc1", "measurement_label": "Bacterial Biotransformation", "recorded_measurement": "Compound metabolized"}
{"compound": "O=C(Nc1ccccc1)OCC(CN1CCCCC1)OC(=O)Nc1ccccc1 (stereo unspecified)", "measurement_label": "Bacterial Biotransformation", "recorded_measurement": "Compound NOT metabolized"}
{"compound": "CCN(CC)CCNC(C(=O)OCCC(C)C)c1ccccc1.Cl.Cl (stereo unspecified)", "measurement_label": "Bacterial Biotransformation", "recorded_measurement": "Compound metabolized"}

// input: 8 compounds below; output: Bacterial Biotransformation for each
1. CC(C)OC(=O)C(C)(C)Oc1ccc(C(=O)c2ccc(Cl)cc2)cc1 [FENOFIBRATE]
2. CN/C(=N/CCSCc1nc[nH]c1C)NC#N
3. OCCN1CCN(CCCN2c3ccccc3Sc3ccc(C(F)(F)F)cc32)CC1
4. N#Cc1ccc(C(c2ccc(C#N)cc2)n2cncn2)cc1
5. O=C(NCc1ccccc1)OCCO [BURAMATE]
6. O=C(O)COCCN1CCN(C(c2ccccc2)c2ccc(Cl)cc2)CC1 (stereo unspecified)
7. Cc1nc(-c2ccc(OCC(C)C)c(C#N)c2)sc1C(=O)O
8. C#C[C@]1(O)CC[C@H]2[C@@H]3CCC4=Cc5oncc5C[C@]4(C)[C@H]3CC[C@@]21C

Compound metabolized
Compound metabolized
Compound NOT metabolized
Compound NOT metabolized
Compound NOT metabolized
Compound metabolized
Compound metabolized
Compound metabolized

Give one value of Bacterial Biotransformation per listed compound.
1. CN1CCN(CC/C=C2/c3ccccc3Sc3ccc(S(=O)(=O)N(C)C)cc32)CC1
2. C#C[C@]1(O)CC[C@H]2[C@@H]3CCC4=CC(=O)CC[C@@H]4[C@H]3CC[C@@]21CC
3. COc1ccccc1N1CCN(CC(O)COc2cccc3ccccc23)CC1 (stereo unspecified)
4. Cc1ccccc1N1C(=O)c2cc(S(N)(=O)=O)c(Cl)cc2NC1C (stereo unspecified)
5. O=c1n(CCCN2CCN(c3cccc(Cl)c3)CC2)nc2ccccn12

["Compound metabolized", "Compound metabolized", "Compound NOT metabolized", "Compound NOT metabolized", "Compound metabolized"]

* * *

experimental_details: The drug is tested on WLS-220 corresponding to human gut metagenome with ENA study accession number: PRJEB37062 and ENA sample accession number: ERS12561769 for biotransformation under anaerobic condition. The drug concentrations were measured over 9 timepoints collected between 0 and 24 hours of incubation by liquid-chromatography-coupled mass spectrometry (LC–MS)
condition_notes: 2 µM
measurement_label: Bacterial Biotransformation

Some molecules with recorded Bacterial Biotransformation:
{"molecule": "CCc1nc(N)nc(N)c1-c1ccc(Cl)cc1 [PYRIMETHAMINE]", "Bacterial Biotransformation": "Compound NOT metabolized"}
{"molecule": "CCC(=O)NCC[C@@H]1CCc2ccc3c(c21)CCO3 [RAMELTEON]", "Bacterial Biotransformation": "Compound metabolized"}
{"molecule": "Clc1ccc(Cn2c(CN3CCCC3)nc3ccccc32)cc1 [CLEMIZOLE]", "Bacterial Biotransformation": "Compound NOT metabolized"}
{"molecule": "N#Cc1ccc(C(c2ccc(C#N)cc2)n2cncn2)cc1 [LETROZOLE]", "Bacterial Biotransformation": "Compound NOT metabolized"}
{"molecule": "Fc1ccc([C@@H]2CCNC[C@H]2COc2ccc3c(c2)OCO3)cc1 [PAROXETINE]", "Bacterial Biotransformation": "Compound metabolized"}

Would you be so kind as to report Bacterial Biotransformation for each listed record?
1. CCN1CCCC1CNC(=O)c1cc(S(N)(=O)=O)ccc1OC (centres undefined) [SULPIRIDE]
2. CN1CCOC(c2ccccc2)c2ccccc2C1 (centres undefined) [NEFOPAM]

1: Compound NOT metabolized; 2: Compound metabolized
